I'd be grateful if you could share measured Kass Human Thrombin for these entries.
- SYSTEM_NAME: Human Thrombin (Homo sapiens, UniProt P00734)
- METHOD_DESCRIPTION: Inhibition of thrombin amidase activity (Kass), chromogenic substrate
- Format: biochemical
- SETUP_CONDITIONS: mean Kass over a range of concentrations; substrate N-benzoyl-Phe-Val-Arg-p-nitroanilide
Where a name gives a salt, the structure may show the parent alone.

Lookup: For CCS(=O)(=O)N[C@H](CC1CCCCC1)C(=O)N1CCC[C@H]1C(=O)NCc1ccnc(N)c1.Cl [Example 83] , what is its reported Kass Human Thrombin?
Found: 2.4 × 10^6 (L/mole)

Lookup: Note, next up: Cl.NC[C@H]1CC[C@H](CNC(=O)[C@@H]2CCCN2C(=O)[C@H](N)Cc2ccccc2)CC1 (relative stereo) [Example 12]
Found: 0.44 × 10^6 (L/mole)

Lookup: Same again, this time with Cl.NC(N)=NC/C=C/CNC(=O)[C@@H]1CCCN1C(=O)[C@H](N)Cc1ccccc1 (relative stereo) [Example 8]
Found: 5.3 × 10^6 (L/mole)

Lookup: N=C(N)c1ccc(CNC(=O)[C@@H]2CCCN2C(=O)[C@H](NCC(=O)O)C2CCCCC2)cc1 [Example 86, hydrochloride] , same question.
Found: 200 × 10^6 (L/mole)

Lookup: Ok, now CCS(=O)(=O)N[C@H](CC1CCCCC1)C(=O)N1CCC[C@H]1C(=O)NCCCCN=C(N)N.Cl [Example 2, EtSO2 -D-Cha-Pro-Agm.HCl]
Found: 4.4 × 10^6 (L/mole)

Lookup: Please answer likewise for NCc1ccc(CNC(=O)[C@@H]2CCCN2C(=O)[C@@H](CC2CCCCC2)NCC(=O)O)cc1 [Example 78]
Found: 11 × 10^6 (L/mole)

Lookup: Please answer likewise for N=C(N)C1CCC(CNC(=O)[C@@H]2CCCN2C(=O)[C@@H](CC2CCCCC2)NCC(=O)O)NC1 (stereo partly shown) [Example 67]
Found: 11 × 10^6 (L/mole)
